- experimental.target: Kv1.3 (Homo sapiens)
- measurement.protocol: Kv1.3 channel block, estimated Kd (Table 1)
- Type: binding
- condition.set: Kv1.3, area; read-out: Est. Kd, Kd area
readout.type: pKd
Please keep in mind that pKd is minus log10 of the molar concentration; only the number is needed.

>>> recorded_number("COc1c(C(=O)/C=C/c2cccc(O)c2)c(O)c(OC)c2occc12")
6.15

Request: Give its pKd value. Item: COc1cccc(/C=C/C(=O)c2c(O)c(OC)c3occc3c2OC)c1 (single isomer, unassigned)
Response: 6.10

---

- experimental.target: Kv1.3 (Homo sapiens)
- measurement.protocol: Kv1.3 channel block, estimated Kd (Table 1)
- Format: binding
- condition.set: Kv1.3, peak; read-out: Est. Kd, Kd peak
readout.type: log10 of Kd (log10 of the value in µM)
A difference of one corresponds to tenfold Kd; all values are log10 with Kd in µM.

Request: Form field - read-out: log10 of Kd; system: Kv1.3 (Homo sapiens); submitted item: COc1c(C(=O)/C=C/c2cccc(C(F)(F)F)c2)c(O)c(OC)c2occc12 [Example 32]
Response: 1.60

Request: Record lookup: for Kv1.3 (Homo sapiens), what log10 of Kd belongs to COc1c(C(=O)/C=C/c2ccccc2[N+](=O)[O-])c(O)c(OC)c2occc12 [Example 27] ?
Response: 1.18

Request: Missing value: log10 of Kd, Kv1.3 (Homo sapiens), entry COc1c(C(=O)/C=C/c2cccc(O)c2)c(O)c(OC)c2occc12 [Example 18] . Fill in?
Response: 0.70

---

- experimental.target: Kv1.3 (Homo sapiens, UniProt P22001)
- Sequence (P22001 whole entry): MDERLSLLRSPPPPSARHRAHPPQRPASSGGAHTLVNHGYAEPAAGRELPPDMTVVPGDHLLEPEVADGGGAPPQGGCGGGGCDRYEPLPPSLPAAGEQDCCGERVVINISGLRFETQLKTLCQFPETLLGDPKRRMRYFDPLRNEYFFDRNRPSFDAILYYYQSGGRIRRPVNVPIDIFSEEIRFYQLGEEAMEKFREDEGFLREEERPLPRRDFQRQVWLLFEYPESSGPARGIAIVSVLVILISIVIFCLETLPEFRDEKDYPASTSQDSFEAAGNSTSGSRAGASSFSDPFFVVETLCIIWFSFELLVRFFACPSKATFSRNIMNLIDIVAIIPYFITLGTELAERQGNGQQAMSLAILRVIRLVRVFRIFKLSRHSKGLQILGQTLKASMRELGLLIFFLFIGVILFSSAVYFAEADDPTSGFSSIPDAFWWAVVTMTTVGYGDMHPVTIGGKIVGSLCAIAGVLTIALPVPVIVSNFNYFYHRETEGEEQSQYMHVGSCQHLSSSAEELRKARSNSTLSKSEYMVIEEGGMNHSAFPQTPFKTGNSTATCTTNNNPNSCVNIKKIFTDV
- measurement.protocol: Kv1.3 channel block, estimated Kd (Table 1)
- Format: binding
- condition.set: Kv1.3, end; read-out: Est. Kd, Kd end
readout.type: Kd (nM)
Write the answer as a number in nM, unit excluded.

Request: Any idea what its Kd is? The molecule is COc1c(C(=O)/C=C/c2ccc(C(F)(F)F)cc2)c(O)c(OC)c2occc12
Response: 4000

Request: # Kd lookup, item COc1c(C(=O)/C=C/c2ccc(C)s2)c(O)c(OC)c2occc12
Response: 500

Request: Using the record for COc1c(C(=O)/C=C/c2ccc(O)cc2)c(O)c(OC)c2occc12 , report its Kd.
Response: 900

Request: What value of measured Kd is listed for COc1c(C(=O)CCc2ccccc2)c(O)c(OC)c2occc12 ?
Response: 300

Request: Would you mind telling me what Kd value was observed for COc1c(C(=O)/C=C/c2c(F)c(F)c(F)c(F)c2F)c(O)c(OC)c2occc12 ?
Response: 3500

Request: Name the reported Kd value associated with the molecule COc1c(C(=O)/C=C/c2ccccc2)c(O)c(OC)c2occc12
Response: 120

Request: For the molecule shown here, COc1c(C(=O)/C=C/c2cccc(O)c2)c(O)c(OC)c2occc12 , give the reported Kd.
Response: 250

Request: Can you share its Kd? I mean this molecule: COc1c(C(=O)/C=C/c2cccc(F)c2)c(O)c(OC)c2occc12
Response: 4000

Request: What does the data say about its Kd? Entry: CCOc1ccc(/C=C/C(=O)c2c(O)c(OC)c3occc3c2OC)cc1
Response: 1500

Request: Which Kd value belongs to COc1c(C(=O)/C=C/c2cccs2)c(O)c(OC)c2occc12 ?
Response: 300

Request: Reported Kd, molecule COc1c(C(=O)/C=C/c2ccc(F)cc2)c(O)c(OC)c2occc12 : ____
Response: 1000
